molecular target: RORgamma ligand binding domain (Homo sapiens, UniProt P51449); test: TR-FRET ligand sensing assay: RORγ-LBD / coactivator peptide interaction; type: biochemical; parameters: made in house; host or cells: E. coli BL21(DE3)
Sequence (P51449 267-518): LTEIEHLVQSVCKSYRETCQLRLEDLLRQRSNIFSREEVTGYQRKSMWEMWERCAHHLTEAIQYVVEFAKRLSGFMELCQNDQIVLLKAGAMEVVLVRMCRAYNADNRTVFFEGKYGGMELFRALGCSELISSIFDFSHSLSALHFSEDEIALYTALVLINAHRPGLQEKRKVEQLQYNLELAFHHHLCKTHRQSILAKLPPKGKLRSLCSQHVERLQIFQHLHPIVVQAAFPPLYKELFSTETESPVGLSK
endpoint-label: EC50 (nM)
Unit nM implied. Number only.

Exercise: I'd like to know its EC50. The compound in question is CC(C)CC[C@@H](O)[C@@H](C)[C@H]1CC[C@H]2[C@@H]3CC=C4C[C@@H](O)CC[C@]4(C)[C@H]3CC[C@]12C [22R-Hydroxycholesterol]
Solution: 16.5

* * *

target: RORgamma ligand binding domain (Homo sapiens); test: TR-FRET assay variation: agonist titration on top of saturating antagonist (4 μM LE540); format: biochemical; set-up: made in house; host or cells: E. coli BL21(DE3)
endpoint-label: pEC50
# reply with the number alone; pEC50 is -log10 of concentration in mol/L

Exercise: I'd like to know its pEC50. The molecule in question is CC(C)CC[C@@H](O)[C@@H](C)[C@H]1CC[C@H]2[C@@H]3CC=C4C[C@@H](O)CC[C@]4(C)[C@H]3CC[C@]12C [22R-Hydroxycholesterol]
Solution: 6.81

* * *

target: RORgamma ligand binding domain (Homo sapiens, UniProt P51449); assay: TR-FRET assay variation: agonist titration on top of saturating antagonist (4 μM LE540); assay type: biochemical; parameters: made in house; host or cells: E. coli BL21(DE3); conditions: agonistic; assay includes 4 μM LE540; peptide TIF2(628-658); read-out: apparent EC50
endpoint-label: pEC50
# reply with the number alone; pEC50 is -log10 of concentration in mol/L

Take a look at these entries with their results.
> print(dat)
                                   compound  measured.result
1  C[C@H](CCC(=O)N(C)C)[C@H]1CC[C@H]2[C@@H]3CC=C4C[C@@H](O)CC[C@]4(C)[C@H]3CC[C@]12C [DMHCA]             7.07
2  COC(=O)CC[C@@H](C)[C@H]1CC[C@H]2[C@@H]3CC=C4C[C@@H](O)CC[C@]4(C)[C@H]3CC[C@]12C [Cholenic Acid Methyl Ester]             6.51

# ---- query compound ----
Exercise: I'd like to know its pEC50. The compound in question is C[C@@H](CO)CCC[C@@H](C)[C@H]1CC[C@H]2[C@@H]3CC=C4C[C@@H](O)CC[C@]4(C)[C@H]3CC[C@]12C [(25R)-26-Hydroxycholesterol]
Solution: 6.84

* * *

Item-by-item account of IC50
target: RORgamma ligand binding domain (Homo sapiens); experiment: TR-FRET ligand sensing assay: RORγ-LBD / coactivator peptide interaction; assay type: biochemical; parameters: made in house; host or cells: E. coli BL21(DE3); details: antagonistic; peptide SRC1(676-700)
Unit µM implied. Number only.

> print(dat)
                            smiles.notation  measured.result
1  C/C(=C\c1ccc(C(=O)O)cc1)c1ccc2c(c1)C(C)(C)CCC2(C)C              8.6
2  CN1c2cc3c(cc2N=C(c2ccc(C(=O)O)cc2)c2ccc4ccccc4c21)C(C)(C)CCC3(C)C              3.6
3  CN1c2cc3c(cc2N=C(c2ccc(C(=O)O)cc2)c2ccccc21)C(C)(C)CCC3(C)C             19.3

# ---- query compound ----
Exercise: I'd like to know its IC50. The compound in question is CC(C)(C)c1cc(C(=O)C=Cc2ccc(C(=O)O)cc2)cc(C(C)(C)C)c1
Solution: 12.2

* * *

Target: RORgamma ligand binding domain (Homo sapiens)
Assay: TR-FRET ligand sensing assay: RORγ-LBD / coactivator peptide interaction
Assay type: biochemical
Parameters: made in house; host or cells: E. coli BL21(DE3)
Details: agonistic; peptide TIF2(628-658); listed as cholenic acid methyl ester; read-out: EC50
From the text: As described in more detail in the examples, a GST-RORgamma-LBD fusion protein is expressed and purified from E. coli. […] Determination of the interaction of a ligand with the human RORgamma ligand binding domain was done by using a Ligand Sensing Assay based on Time-resolved Fluorescence Energy Transfer (TR-FRET). […] The ligand binding domain (LBD) of RORγ was expressed as fusion protein with GST in […] cells using the vector pDEST15. […]
endpoint-label: EC50 (nM)
Unit nM implied. Number only.

Exercise: I'd like to know its EC50. The compound in question is COC(=O)CC[C@@H](C)[C@H]1CC[C@H]2[C@@H]3CC=C4C[C@@H](O)CC[C@]4(C)[C@H]3CC[C@]12C
Solution: 27.7

* * *

target: RORgamma ligand binding domain (Homo sapiens); assay: TR-FRET ligand sensing assay: RORγ-LBD / coactivator peptide interaction; assay type: biochemical; parameters: made in house; host or cells: E. coli BL21(DE3); settings: antagonistic; peptide TIF2(628-658)
endpoint-label: pIC50
# reply with the number alone; pIC50 is -log10 of concentration in mol/L

Take a look at these entries with their results.
> print(dat)
                                   molecule                             target.system  measured.result
1  C/C(=C\c1ccc(C(=O)O)cc1)c1ccc2c(c1)C(C)(C)CCC2(C)C [TTNPB]  RORgamma ligand binding domain (Homo sapiens)             5.09
2  CN1c2cc3c(cc2N=C(c2ccc(C(=O)O)cc2)c2ccc4ccccc4c21)C(C)(C)CCC3(C)C [LE540]  RORgamma ligand binding domain (Homo sapiens)             5.31
3  CN1c2cc3c(cc2N=C(c2ccc(C(=O)O)cc2)c2ccccc21)C(C)(C)CCC3(C)C [LE135]  RORgamma ligand binding domain (Homo sapiens)             4.88

Exercise: I'd like to know its pIC50. The molecule in question is CC(C)(C)c1cc(C(=O)C=Cc2ccc(C(=O)O)cc2)cc(C(C)(C)C)c1 [Ch55]
Solution: 4.95
